For each of the binders below, state its peptide exchange yield.
biological target: T1, HLA-A*02:01 (human); experiment: UV-ligand exchange, anti-β2m ELISA; grade of peptide exchange yield
T1 construct: the tested peptide takes its place; also called peptide-receptive MHC molecules; MHC class I

## Task Tell me the measured peptide exchange yield of SIDRNPPQL [SIDRNPPQL (SEQ ID NO: 139)] , please.
## Result 50 to 75%

## Task Note, next up: ALSKEIYVI [ALSKEIYVI (SEQ ID NO: 83)]
## Result 50 to 75%

## Task Note, next up: LTQPGPIASA [LTQPGPIASA (SEQ ID NO: 54)]
## Result 50 to 75%

## Task Note, next up: FLGDLSHLL [FLGDLSHLL (SEQ ID NO: 36)]
## Result 20 to 50%

## Task Note, next up: FLQPDLDSL [FLQPDLDSL (SEQ ID NO: 104)]
## Result 50 to 75%

## Task Note, next up: NIFPNPEATFV [NIFPNPEATFV (SEQ ID NO: 138)]
## Result 50 to 75%

## Task Note, next up: KVADLVLML [KVADLVLML (SEQ ID NO: 154)]
## Result 50 to 75%

## Task Note, next up: ILASVILNV [ILASVILNV (SEQ ID NO: 109)]
## Result ≥ 75%

## Task Note, next up: LLFNDVQTL [LLFNDVQTL (SEQ ID NO: 91)]
## Result 50 to 75%

## Task Note, next up: YAFPKAVSV [YAFPKAVSV (SEQ ID NO: 147)]
## Result 20 to 50%

## Task Note, next up: ALFEESGLIRI [ALFEESGLIRI (SEQ ID NO: 124)]
## Result 50 to 75%

## Task Note, next up: FVDTRTLL [FVDTRTLL (SEQ ID NO: 1)]
## Result 20 to 50%

## Task Note, next up: MLLEIPYMAA [MLLEIPYMAA (SEQ ID NO: 157)]
## Result 50 to 75%

## Task Note, next up: TTFPRPVTV [TTFPRPVTV (SEQ ID NO: 145)]
## Result 50 to 75%

## Task Note, next up: LLSDPIPEV [LLSDPIPEV (SEQ ID NO: 52)]
## Result 50 to 75%

## Task Note, next up: RLSELGITQA [RLSELGITQA (SEQ ID NO: 57)]
## Result 50 to 75%

## Task Note, next up: VLISGVVHEI [VLISGVVHEI (SEQ ID NO: 146)]
## Result 50 to 75%

## Task Note, next up: AQYKFVYQV [AQYKFVYQV (SEQ ID NO: 12)]
## Result 50 to 75%

## Task Note, next up: ILYSDDGQKWTV [ILYSDDGQKWTV (SEQ ID NO: 45)]
## Result 50 to 75%
